Test system: HepG2
Test: cell viability relative to DMSO; higher = less toxic
Conditions: 72 h; 10000 nM
Mark true for cell viability under 90%, false if at or over.

Previously resolved entries follow.
>  <MOLECULE>
O=C(O)CCCC[C@@H]1SC[C@@H]2NC(=O)N[C@@H]21

>  <SYSTEM_NAME>
HepG2

>  <ASSIGNED_LABEL>
false

$$$$
>  <MOLECULE>
C[C@H](Oc1ccc(S(C)(=O)=O)cc1C(=O)N1CCN(c2ncc(C(F)(F)F)cc2F)CC1)C(F)(F)F

>  <SYSTEM_NAME>
HepG2

>  <ASSIGNED_LABEL>
false

$$$$
>  <MOLECULE>
CC(C(=O)O)c1ccc2c(c1)Cc1ccccc1-2 (configuration not stated)

>  <SYSTEM_NAME>
HepG2

>  <ASSIGNED_LABEL>
false

$$$$
>  <MOLECULE>
CCO[C@H]1O[C@@H]2O[C@@]3(C)CC[C@H]4[C@H](C)CC[C@@H]([C@H]1C)[C@@]24OO3

>  <SYSTEM_NAME>
HepG2

>  <ASSIGNED_LABEL>
false

$$$$
>  <MOLECULE>
CC(=O)NCC(=O)N[C@H](CCC(=O)O)C(=O)O

>  <SYSTEM_NAME>
HepG2

>  <ASSIGNED_LABEL>
false

$$$$
>  <MOLECULE>
COC(=O)C1=C(C)NC(C)=C(C(=O)OCCCN2CCC(c3ccccc3)(c3ccccc3)CC2)[C@@H]1c1cccc([N+](=O)[O-])c1

>  <SYSTEM_NAME>
HepG2

>  <ASSIGNED_LABEL>
true

$$$$
>  <MOLECULE>
COc1cc(C[C@H]2c3cc(OC)c(OC)cc3CCN2C)c(Oc2cc3c(cc2OC)-c2c(OC)c(OC)cc4c2[C@H](C3)N(C)CC4)cc1OC

>  <SYSTEM_NAME>
HepG2

>  <ASSIGNED_LABEL>
true

$$$$
>  <MOLECULE>
O=C(NCC1CCOCC1)c1cnc(Nc2ccc(Cl)cc2Cl)nc1C(F)(F)F

>  <SYSTEM_NAME>
HepG2

>  <ASSIGNED_LABEL>
false

$$$$

-- ask hey, is cell viability for Cc1ccccc1C(=O)Nc1ccc(C(=O)N2CCCC(O)c3cc(Cl)ccc32)c(C)c1 (configuration not stated) lower than 90% or not?
-- reply false

-- ask Please let me know if `O=C(N[C@@H]1CC[C@@H](c2cccc(F)c2F)CN(CC(F)(F)F)C1=O)N1CCC(n2c(=O)[nH]c3ncccc32)CC1` shows cell viability below 90%.
-- reply false

-- ask Dear colleague, could you confirm whether cell viability of `Cn1cc(-c2cnn3c(N)c(Br)c([C@@H]4CCCNC4)nc23)cn1` falls below 90%? Thanks.
-- reply true

-- ask Quick check: does `O=C1c2ccccc2-n2c1nc1ccccc1c2=O` have cell viability under 90%?
-- reply true

---

Tested on: U2OS
Assay: cell viability relative to DMSO; higher = less toxic
Details: 72 h; 10 nM
TEST_READOUT: cell viability (%)
Your answer is read as %, so omit the unit and give the number.

Would you please look over these solved cases?
>  <COMPOUND>
CCCNS(=O)(=O)Nc1ncnc(OCCOc2ncc(Br)cn2)c1-c1ccc(Br)cc1 [macitentan]

>  <MEASUREMENT_UNITS>
%

>  <MEASURED_VALUE>
99.5

$$$$
>  <COMPOUND>
C=C1CC[C@H](O)C/C1=C/C=C1\CCC[C@]2(C)[C@@H]([C@H](C)/C=C/[C@H](C)C(C)C)CC[C@@H]12 [ergocalciferol]

>  <MEASUREMENT_UNITS>
%

>  <MEASURED_VALUE>
99.6

$$$$
>  <COMPOUND>
c1ccc(C(O[C@@H]2CCCN(CCc3ccc4c(c3)OCO4)C2)c2ccccc2)cc1 [zamifenacin]

>  <MEASUREMENT_UNITS>
%

>  <MEASURED_VALUE>
99.6

$$$$
>  <COMPOUND>
Cc1ccccc1-n1c(Cn2ncc3c(N)ncnc32)nc2cccc(C)c2c1=O [PIK-293]

>  <MEASUREMENT_UNITS>
%

>  <MEASURED_VALUE>
100

$$$$
>  <COMPOUND>
OC[C@H]1O[C@H](O[C@H]2O[C@H](CO)[C@@H](O)[C@H](O)[C@H]2O)[C@H](O)[C@@H](O)[C@@H]1O [cabaletta]

>  <MEASUREMENT_UNITS>
%

>  <MEASURED_VALUE>
103

$$$$

-- ask Check the records and state cell viability for CC(C(=O)O)c1ccc(CC2CCCC2=O)cc1 (configuration not stated) [loxoprofen]
-- reply 92.7

-- ask Give reported cell viability value for Nc1nc(=O)n([C@H]2C[C@H](O)[C@@H](CO)O2)cc1Cl [cytochlor]
-- reply 100
